# test: Cytotoxicity against human H466 cells after 48 hrs by CCK-8 assay
# Type: functional, cell-based
# measurementContext: H466, 48 h
pIC50: −log10 of the molar value.
endpointLabel: pIC50

>>> reportedmeasurement("CCCCCCCC(=O)SCC/C=C/[C@@H]1CC(=O)NCc2nc(cs2)C2=N[C@@](C)(CS2)C(=O)N[C@@H](C(C)C)C(=O)O1 [LARGAZOLE]")
6.28

* * *

# test: Cytotoxicity against human GLC82 cells after 48 hrs by CCK-8 assay
# Format: functional, cell-based
# measurementContext: GLC82, 48 h
pIC50: −log10 of the molar value.
endpointLabel: pIC50

>>> reportedmeasurement("CCCCCCCC(=O)SCC/C=C/[C@@H]1CC(=O)NCc2nc(cs2)C2=N[C@@](C)(CS2)C(=O)N[C@@H](C(C)C)C(=O)O1")
6.72

The measurements presented in this section are drawn from ChEMBL document CHEMBL2440054.
